// reported IC50 per item
# Test system: ADP-induced aggregation of human blood platelets
# assay.name: cells
# Format: cell-based
# applied.conditions: Platelet, read-out: IC50 vs ADP in human PRP
# Procedure: The aggregometer method of Born, C. V. R., J. Physiol., (London), 162, 67-68, (1962) as modified by Mustard, J. F., et al., J. Lab. […] Platelet rich plasma (PRP) was separated by centrifugation for 10 minutes at 1000 rpm (140xg) from citrated (3.8%) human blood. […] Dose response curves were obtained and Inhibitor Concentration (IC50) values calculated. The target compounds were evaluated as inhibitors of ADP-induced aggregation of human blood platelets in platelet-rich-plasma (PRP) in vitro. […]
Structures can show the parent of a compound that is named as a salt.
Only the number, expressed in µg/mL, is required.

# annotated cases, reported IC50 shown
{"columns": ["compound", "IC50 / µg/mL"],
 "data": [
  ["CCCC(CCC)CN1CCC(n2nnnc2CCCOc2ccc3nc4[nH]c(=O)[nH]c4cc3c2)CC1 [Cmpd 12j, dihydrochloride]", 0.048],
  ["Oc1nc2cc3cc(OCCCc4nnnn4C4CCN(Cc5ccccc5)CC4)ccc3[nH]c-2n1 [Cmpd 12b, dihydrochloride]", 0.022],
  ["CCOC(=O)N1CCC(n2nnnc2CCCCOc2ccc3nc4[nH]c(=O)[nH]c4cc3c2)CC1 [Cmpd 10b]", 0.05]
]}

Consider the additional compound presented here.
Suppose we examine the compound CCC(CC)CN1CCC(n2nnnc2CCCCOc2ccc3nc4[nH]c(=O)[nH]c4cc3c2)CC1 [Cmpd 13e] ; what IC50 value has been reported?
0.0068
